Assignment: determine reported IC50 neutralization for the given binders.
Molecular target: HIV-1 92BR020 envelope glycoprotein (Env) (HIV-1)
Test: cell-based or functional assay
Express it in µg/mL; write the number only.

Write down IC50 neutralization measured for item PGT-130 (antibody, V domains shown) VH: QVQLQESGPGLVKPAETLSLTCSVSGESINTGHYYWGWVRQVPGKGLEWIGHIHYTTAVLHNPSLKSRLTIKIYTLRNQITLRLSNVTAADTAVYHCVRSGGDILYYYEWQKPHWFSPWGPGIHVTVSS VL: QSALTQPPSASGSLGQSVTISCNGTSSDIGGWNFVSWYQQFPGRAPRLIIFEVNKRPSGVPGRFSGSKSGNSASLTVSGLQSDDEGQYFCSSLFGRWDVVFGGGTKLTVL
1.12

Write down IC50 neutralization measured for item PGT-125 (antibody, V domains shown) VH: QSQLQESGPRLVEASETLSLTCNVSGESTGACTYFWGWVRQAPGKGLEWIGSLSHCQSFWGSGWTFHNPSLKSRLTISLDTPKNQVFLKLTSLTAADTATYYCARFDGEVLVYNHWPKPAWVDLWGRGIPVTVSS VL: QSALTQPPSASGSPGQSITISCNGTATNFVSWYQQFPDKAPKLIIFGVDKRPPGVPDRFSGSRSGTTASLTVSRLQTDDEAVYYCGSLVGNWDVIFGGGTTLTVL
0.0214
